Attribution: the supplement of paper PMC6555819

Tested on: RARb homodimer (NR concentration 270 nM)
Assay: PBM binding z-score (relative to random genomic background probes); higher = stronger binding; sequences stand for … in GC…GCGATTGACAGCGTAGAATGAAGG
parameter: PBM binding z-score

{"columns": ["polymer.sequence", "result"],
 "data": [
  ["CTATGTAGGTTAAGGGGGTCATTCACTTTGAAAG", 3.95],
  ["TCTCGGAGGACACGAAACGTCAGAGCTCGACATC", 0.176],
  ["CGAACTAGGTCATAGGACAGTGAAAGGCGACGTA", 2.66],
  ["CAAACTAGGCCAAGGTCAAAGTCGGTTTGTGCCA", 3.85],
  ["CGAACTTGGTCAAAGGACAGTGAAAGGCGACGTA", 1.3],
  ["CTATGTAGGTTAAGGGGTTCATTCAGTTTGAAAG", 1.75],
  ["TAGCCAAGGTCATTCAGGGGCCAGTATAGAAAGC", 4.08],
  ["ATCTCTAGGTGAAAGTTCAGTGAATCCCGAGGAT", 2.67],
  ["TGAATGAGGTTTAAGATCAGGGAACGTGGCGTCG", -0.403],
  ["TCGCGTAGGTTACGGGGGCATTCAGGGATGAAGA", 2.37],
  ["TCTAGTTGGTCAAAGGCCACACACTCGAAATGCG", 1.9],
  ["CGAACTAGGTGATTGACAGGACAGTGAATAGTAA", 0.647],
  ["TGAATGAGGTCAAAGATCAGGGAACGTGGCGTCG", 3.65],
  ["CCTTCTGGGCCATTCAGAGGTCATTGATCATATG", 4.13],
  ["ACTTACGGGTCAACGGGGTTATAGCACGCGTATA", 3.81],
  ["CTGTGTAGGTTAAGGGGGTCATTCAGTTTGAAAG", 4.19],
  ["AATACAGGGTCACTAGGCCAGAGTGGGTACGAAT", 3.17]
]}

====

Reported PBM binding z-score values for a set of sequences
Tested on: RARb:RXRa (NR concentration 270 nM, RXRa partner concentration 90 nM)
Experiment: PBM binding z-score (relative to random genomic background probes); higher = stronger binding; sequences stand for … in GC…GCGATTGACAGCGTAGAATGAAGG

{"columns": ["polymer.sequence", "PBM binding z-score"],
 "data": [
  ["ATCGAAAGGTCGTGAAGTGAGTATACAGAAAGGC", 3.73],
  ["ATATGTAGGTTAGGGTGATTCAGAAAGTAGGGAA", 1.38],
  ["ATATGTAGGATATCGGGTCATTCAGTTTGCGCAT", 1.66],
  ["TCATATAGGTAATAGGTGAAAGTCGGTGTGGTAA", 0.581],
  ["GTACCAAGGTGAATAGGTCGTTGATGAGTAGGCG", 1.94],
  ["CGTCAAAGTTCACCTAAGGTAACGTAAAGCACGC", 5.21],
  ["CGAACTAGGGCAAAGGACAGTGAAAGGCGACGTA", 2],
  ["AATACAGGGTCCTCGTAGGCCAGAGTACGCACAG", 0.268],
  ["GCTTACGGGTGAAAGGTTATAGCATGAATAGAAT", 2.14],
  ["CGAACAAGGTCAAAGGACAGTGAAAGGCGACGTA", 4.98],
  ["ATATGTGGGTTATCGGGTCATTCAGTTTGCGCAT", 2.42],
  ["AGTCAAAGTTCATCTGGGTAACGTAAGATATGCT", 4.81],
  ["CCGAGTAGGTTACGAGGGGGCATTTAGTGCGAAT", 2.09],
  ["TGTCAAAGTTCTAAGGTAACGTAAGTATCCACAC", 0.779],
  ["CAAACTAGGTCACAGAGGTTAAAGTCCGTGCGTA", 4.62],
  ["CCGAGTAGGTTACGAGGGGCCATTCAGTGCGAAT", 1.47],
  ["CGTCCAAGGTCAGATAGGTCAGTGAATGCCGAGT", 5.1],
  ["CGAATTAGGTCACCAGGACAGTGAAGAGGTTGGA", 4.52],
  ["TCGAGTAGGTTACGAGGGCATTCAGGGATGAAGA", 1.63],
  ["TCTAGTTGGTGACGGAGGTCACACACGACGGGTA", 3.36],
  ["ATATGTAGATTAGGGTCATTCAGAAAGTAGGGAA", 2.92],
  ["ATATGTAGGTTAGGGTCATCCAGAAAGTAGGGAA", 3.55],
  ["CCTACTGTGCCATTCAGAGGTCATTGATCATATG", 3.08],
  ["CGAACTAGGTAAAGGACAGTGAATCTCCGCACGC", 1.21],
  ["ATATGTAGGTTAGGGTCATTCATAAAGTAGGGAA", 3.63],
  ["CGAACTAGGTCAAAGGATAGTGAAAGGCGACGTA", 3.62],
  ["CCTACTGGGCAAAAAAGGTCATTGATGCCGATAA", 3.81],
  ["ATCGAAAGGTCGAGGAGGTGAGTATACACCGTTT", 3.94],
  ["TCGAGTTGGTTACGGGGGCATTCAGGGATGAAGA", 1.97]
]}
